These measurements were taken from PubChem BioAssay AID1963961.

Test system: K98450-129-R-PDC multicell spheroids, viability;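 further: spheroids exposed to agents for seven days before read-out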
Assay Text: Anticancer human tumor K98450-129-R-PDC patient-derived colon adenocarcinoma cell line growth inhibition [PI3K]; active means viability on the fitted dose curve at most 10% of control; inactive means the rest
Condition Parameters: second compound 10 µM; first compound 10 µM
Outcome codes: Y = active, N = inactive

{"Molecule": "CC(Cn1ccc(-c2ccc(C#N)c(Cl)c2)n1)NC(=O)c1cc(C(C)O)[nH]n1 (stereo not given) + CC(Nc1ncnc2nc[nH]c12)c1cc2cccc(Cl)c2c(=O)n1-c1ccccc1", "Study System": "K98450-129-R-PDC multicell spheroids, viability", "Group": "N"}
{"Molecule": "CC1(C)CCC(CN2CCN(c3ccc(C(=O)NS(=O)(=O)c4ccc(NCC5CCOCC5)c([N+](=O)[O-])c4)c(Oc4cnc5[nH]ccc5c4)c3)CC2)=C(c2ccc(Cl)cc2)C1 + Cc1nc(NC(=O)N2CCCC2C(N)=O)sc1-c1ccnc(C(C)(C)C(F)(F)F)c1", "Study System": "K98450-129-R-PDC multicell spheroids, viability", "Group": "Y"}
{"Molecule": "C=CC(=O)N1CCN(c2nc(=O)n(-c3c(C)ccnc3C(C)C)c3nc(-c4c(O)cccc4F)c(F)cc23)C(C)C1 (stereo not given) + Cc1nc(NC(=O)N2CCCC2C(N)=O)sc1-c1ccnc(C(C)(C)C(F)(F)F)c1", "Study System": "K98450-129-R-PDC multicell spheroids, viability", "Group": "Y"}
{"Molecule": "Cn1nccc1Nc1nccc(-c2ccn(C(CO)c3ccc(Cl)c(F)c3)c(=O)c2)n1 (stereo not given) + Cc1nc(NC(=O)N2CCCC2C(N)=O)sc1-c1ccnc(C(C)(C)C(F)(F)F)c1", "Study System": "K98450-129-R-PDC multicell spheroids, viability", "Group": "N"}
{"Molecule": "CNC(=O)c1ccc(N2C(=S)N(c3ccc(C#N)c(C(F)(F)F)c3)C(=O)C2(C)C)cc1F + CC(Nc1ncnc2nc[nH]c12)c1cc2cccc(Cl)c2c(=O)n1-c1ccccc1", "Study System": "K98450-129-R-PDC multicell spheroids, viability", "Group": "N"}
